Tested on: ethanol-induced gastric lesion
Test: Inhibition of Ethanol-induced Gastric Lesion (Protection of gastric mucosa)
Type: in vivo, male Wister rats
Settings: Rattus norvegicus, po, 1 h; 30 mg/kg orally, rats, ethanol 0.5 ml/100 g
Outcome: YES for inhibition in vivo at 30 mg/kg of at least 90%; NO for anything lower.

// below: answered molecules
[[record]]
smiles_notation = "C=CCN(CC)c1c(-c2ccccc2C)nc2c3ccccc3ccn12"
study_target = "ethanol-induced gastric lesion"
group = "YES"

[[record]]
smiles_notation = "CCNc1c(-c2ccccc2C)nc2c3ccccc3c(OC)cn12"
study_target = "ethanol-induced gastric lesion"
group = "NO"

[[record]]
smiles_notation = "CCN(CCOC)c1c(-c2ccccc2C)nc2c3ccccc3ccn12"
study_target = "ethanol-induced gastric lesion"
group = "YES"

[[record]]
smiles_notation = "C=CCNc1c(-c2ccccc2C)nc2c3ccccc3ccn12"
study_target = "ethanol-induced gastric lesion"
group = "NO"

[[record]]
smiles_notation = "CCc1ccccc1-c1nc2c3ccccc3ccn2c1N(CC)CCC(C)C"
study_target = "ethanol-induced gastric lesion"
group = "NO"

[[record]]
smiles_notation = "Cc1cc(-c2nc3c4ccsc4ccn3c2N)c(C)o1"
study_target = "ethanol-induced gastric lesion"
group = "YES"


Here is another molecule to look at.
Inquiry: # bool: inhibition in vivo at 30 mg/kg of Cc1ccccc1-c1nc2c3ccccc3ccn2c1N >= 90%
Reply text: NO
